Entries and their MIC values follow.
system: P1; assay: MIC determination (bacteria), strain P1; format: cell-based, S. pneumoniae; settings: Streptococcus pneumoniae; Table 2; 2-fold broth dilution
Quantity: MIC (µg/mL)

[
  {
    "Compound": "Cc1cc(Cl)ccc1OCCC/C(O)=C1\\C(=O)CCN(C(=O)c2ccccc2)C1=O [19d]",
    "Study target": "P1",
    "Quantity": "MIC",
    "Reported result": 2
  },
  {
    "Compound": "CSCCC1C(=O)/C(=C(/O)CCCOc2ccc(Cl)cc2C)C(=O)N1C(=O)CC(C)CC(C)(C)C (centres unmarked) [31j]",
    "Study target": "P1",
    "Quantity": "MIC",
    "Reported result": 0.5
  },
  {
    "Compound": "CCCCCCC(=O)N1CC(=O)/C(=C(/O)CO[C@H]2C[C@@H](C)CC[C@@H]2C(C)C)C1=O [27n]",
    "Study target": "P1",
    "Quantity": "MIC",
    "Reported result": 0.5
  },
  {
    "Compound": "CSCCC1C(=O)/C(=C(/O)CC2CC3CCC2C3)C(=O)N1C(=O)CC(C)CC(C)(C)C (centres unmarked) [31g]",
    "Study target": "P1",
    "Quantity": "MIC",
    "Reported result": 0.5
  },
  {
    "Compound": "CSCCC1C(=O)/C(=C(/O)CC(C)(C)CC(=O)OCCC23CC4CC(CC(C4)C2)C3)C(=O)N1C(C)=O (centres unmarked) [31i]",
    "Study target": "P1",
    "Quantity": "MIC",
    "Reported result": 2
  }
]

###

Tested on: H4
Experiment: MIC determination (bacteria), strain H4
Format: cell-based, H. influenzae
Settings: Table 1; haemophilus test medium
Procedure: MIC determination (bacteria); MICs were determined based on Clinical and Laboratory Standards Institute (CLSI) methodology (Methods for dilution antimicrobial susceptibility tests for bacteria that grow aerobically; Approved Standard—seventh edition. 2006, M7-A7, CLSI, Wayne Pa.) by a 2-fold broth dilution technique in Mueller Hinton (pH7.4 Biorad). For S. pneumoniae, the medium was supplemented with 2.5% laked horse blood. For H. influenzae, the medium was haemophilus test medium (H.T.M.). […]

[
  {
    "Compound": "CCCCCCCCCC(O)=C1C(=O)CCN(C(=O)c2ccc(OC)cc2)C1=O [25d]",
    "MIC H4": "8 µg/mL"
  },
  {
    "Compound": "CCCCCC(O)=C1C(=O)C(CCSC)N(C(=O)C2CCCCC2)C1=O (centres unmarked) [24d]",
    "MIC H4": "4 µg/mL"
  },
  {
    "Compound": "CCCCCCCC=CC(=O)N1C(=O)C(=C(O)CCC)C(=O)C1CC(C)C (centres unmarked) [23b]",
    "MIC H4": "2 µg/mL"
  },
  {
    "Compound": "CCCCCC(O)=C1C(=O)C(CCSC)N(C(=O)CC(C)CC(C)(C)C)C1=O (centres unmarked) [24i]",
    "MIC H4": "2 µg/mL"
  },
  {
    "Compound": "CCCCCCCCCCCC(O)=C1C(=O)C(CCSC)N(C(C)=O)C1=O (centres unmarked) [24b]",
    "MIC H4": "2 µg/mL"
  },
  {
    "Compound": "CCCCCCCCCCC(O)=C1C(=O)C(CCSC)N(C(C)=O)C1=O (centres unmarked) [24a]",
    "MIC H4": "4 µg/mL"
  },
  {
    "Compound": "CCCCCCCC(O)=C1C(=O)C(CCSC)N(C(=O)C2CCCCC2)C1=O (centres unmarked) [24e]",
    "MIC H4": "2 µg/mL"
  },
  {
    "Compound": "CCCCCCCC=CC(=O)N1C(=O)C(=C(C)O)C(=O)C1CC(C)C (centres unmarked) [23a]",
    "MIC H4": "4 µg/mL"
  },
  {
    "Compound": "CCCCCCCCCCCC(O)=C1C(=O)CCN(C(=O)c2ccccc2)C1=O [25b]",
    "MIC H4": "4 µg/mL"
  },
  {
    "Compound": "CCCCCCCC(O)=C1C(=O)C(CCSC)N(C(=O)CC(C)CC(C)(C)C)C1=O (centres unmarked) [24j]",
    "MIC H4": "2 µg/mL"
  },
  {
    "Compound": "CCCCCCCCCC(O)=C1C(=O)C(CCSC)N(C(=O)CC(C)CC(C)(C)C)C1=O (centres unmarked) [24k]",
    "MIC H4": "64 µg/mL"
  },
  {
    "Compound": "CCCCCCCCCC(O)=C1C(=O)CCN(C(=O)c2ccccc2)C1=O [25a]",
    "MIC H4": "8 µg/mL"
  },
  {
    "Compound": "CCCCCCCCCC(O)=C1C(=O)C(CCSC)N(C(=O)Cc2cccs2)C1=O (centres unmarked) [24m]",
    "MIC H4": "4 µg/mL"
  },
  {
    "Compound": "CCCCCCCCCCCCCC(O)=C1C(=O)CCN(C(=O)c2ccccc2)C1=O [25c]",
    "MIC H4": "32 µg/mL"
  }
]

Each recorded value in this set is attributed to patent US9765069B2.
